Origin of the recorded values: PubChem BioAssay AID588795

TARGET OF ASSAY: Flap endonuclease 1 (Homo sapiens)
PROCEDURE DETAILS: qHTS Assay for the Inhibitors of Human Flap endonuclease 1 (FEN1). Further: nearly all actives have a fitted effect of over 65% in size.
RUN PARAMETERS: Recombinant FEN1 flap cleavage, fluorescence, 15 min; series mostly up to 114 µM
Out of some 390,000 compounds screened, about 1,400 (0.36%) were called active. Inconclusive results (about 2%) are left out. The call rests on the fitted dose curve; in most records, active means well fitted inhibition curve with a large enough effect; inconclusive means small, poorly fitted or top-dose-only effect; inactive means no such curve, though single readings can be large or run the other way. The list comes from a sample in which actives are over-represented; it also holds close analogues and randomly drawn compounds.
Select the matching outcome among 1 (yes) = active, 0 (no) = inactive

Here are 5 compounds together with their reported answers.
- COMPOUND: "COc1ccc(CCNc2ncnc3c2cnn3-c2ccc(C)cc2)cc1"
  CLASS NAME: "0 (no)"
- COMPOUND: "Fc1ccc(-c2ccc(NCCN3CCOCC3)nn2)cc1"
  CLASS NAME: "0 (no)"
- COMPOUND: "O=C1O/C(=C\\c2ccc(O)cc2)C(O)=C1c1ccc(O)cc1"
  CLASS NAME: "0 (no)"
- COMPOUND: "O=C(c1ccco1)N(Cc1cccs1)c1ccc(O)cc1"
  CLASS NAME: "0 (no)"
- COMPOUND: "Cc1ccc(S(=O)(=O)c2c(Nc3cccc(Cl)c3)sc(C(=O)c3ccc4c(c3)OCO4)c2N)cc1"
  CLASS NAME: "0 (no)"

## Task Per the assay record, what outcome was assigned to CCCCCCC1(C)NC(c2ccc3c(c2)OCO3)=CC(c2ccccc2O)N1 (centres undefined) ?
## Result 0 (no)

## Task Recorded call for c1ccc2cc3c(NCCN4CCOCC4)ccnc3cc2c1 ?
## Result 1 (yes)

## Task Test call, this compound: C#CCOCCOCCOCCNc1nc(N2CCN(C(=O)CCCCCCCCCCNC(=O)Cn3cc(CCCCCN)nn3)CC2)nc(N2CCN(C(=O)CCCCCCCCCCNC(=O)[C@H](CO)n3cc(CCCSC)nn3)CC2)n1
## Result 1 (yes)

## Task What did this assay record as the result for CN(C)c1cccc2ccccc12 ?
## Result 0 (no)
